# credit: patent US8962322B2

Nanog-luc fold Induction values, listed per item
- Test system: human Nanog promoter
- assayRemarks: Nanog-luc luciferase reporter assay (stably transfected CV1 cells)
- Type: cell-based
- testConditions: compound at 1 μM, Nanog-luc cells, triplicates
Answer format: numeric, fold implied, no suffix.

COc1ccc(C(=O)Nc2ccc3[nH]c(C)cc3c2)cc1 3.43
CN1CCC(c2c[nH]c3ccc(NC(=O)c4ccc(F)cc4)cc23)CC1 1.1

// next item, Nanog-luc fold Induction requested
// query For `COc1cccc(C(=O)Nc2ccc3[nH]ncc3c2)c1` , what is its reported Nanog-luc fold Induction?
// result 1.9

---

- Test system: human Oct4 promoter
- assayRemarks: Oct4-luc luciferase reporter assay (stably transfected CV1 cells)
- Assay type: cell-based
- testConditions: compound at 1 μM, Oct4-luc cells, triplicates
Oct4-luc fold Induction values, listed per item

O=C(Nc1ccc2[nH]ccc2c1)c1ccc2nonc2c1 2.9 fold
COc1cccc(C(=O)Nc2ccc3[nH]ncc3c2)c1OC 1.4 fold
O=C(Nc1ccc2[nH]ncc2c1)c1ccccc1 1.9 fold
O=C(Nc1ccc2[nH]ncc2c1)c1ccccc1Cl 1.7 fold
O=C(Nc1ccc2[nH]ncc2c1)c1cccc(Cl)c1 1.6 fold

// query For `CCOc1ccc(C(=O)Nc2ccc3[nH]ncc3c2)cc1OCC` , what is its reported Oct4-luc fold Induction?
// result 1.0 fold

// query For `CCc1ccc(C(=O)Nc2ccc3[nH]ncc3c2)cc1` , what is its reported Oct4-luc fold Induction?
// result 4.5 fold

// query For `O=C(Nc1ccc2[nH]ncc2c1)c1cccc(F)c1` , what is its reported Oct4-luc fold Induction?
// result 1.3 fold

// query For `Cc1nc2cc(NC(=O)c3ccc([N+](=O)[O-])cc3)ccc2[nH]1` , what is its reported Oct4-luc fold Induction?
// result 1.3 fold

// query For `O=C(Nc1ccc2[nH]nnc2c1)c1cccc(Cl)c1` , what is its reported Oct4-luc fold Induction?
// result 1.0 fold
